Numbers sourced from ChEMBL document CHEMBL3784954.

Reported pIC50 values are given for each entry in this list.
# SYSTEM_UNDER_TEST: UniProt:P24666
# Sequence (P24666 whole entry): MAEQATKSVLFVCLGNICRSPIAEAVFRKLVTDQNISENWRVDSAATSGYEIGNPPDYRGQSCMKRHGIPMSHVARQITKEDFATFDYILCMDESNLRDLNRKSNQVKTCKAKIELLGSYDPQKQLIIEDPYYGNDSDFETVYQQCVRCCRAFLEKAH
# PROTOCOL_SUMMARY: Inhibition of recombinant human LMW-PTP isoform 1 expressed in Escherichia coli TB1
# pIC50 = -log10(concentration in molar units)

Query COC(=O)[C@]12CCC(C)(C)C=C1[C@H]1CC[C@@H]3[C@@]4(C)CCC(=O)C(C)(C)[C@@H]4CC[C@@]3(C)[C@]1(C)CC2 on UniProt:P24666; pIC50 returned: 4.47

Query CC1(C)C=C2[C@H]3CC[C@@H]4[C@@]5(C)CCC6(OCCO6)C(C)(C)[C@@H]5CC[C@@]4(C)[C@]3(C)CC[C@@]2(CO)CC1 on UniProt:P24666; pIC50 returned: 4.79

====

# SYSTEM_UNDER_TEST: Tyrosine-protein phosphatase non-receptor type 1 (Homo sapiens)
# PROTOCOL_SUMMARY: Inhibition of recombinant human PTP-1B expressed in Escherichia coli TB1 at 50 uM using p-nitrophenyl phosphate as substrate
Calls of active or inactive are those of the source. The calls are words filed in the database; no cut-off is given here.
MEASURED_ENDPOINT: inhibition

Look over these answered cases.
CCOC(=O)[C@]12CCC(C)(C)C=C1[C@H]1CC[C@@H]3[C@@]4(C)CCC(=O)C(C)(C)[C@@H]4CC[C@@]3(C)[C@]1(C)CC2 | Active
COC(=O)[C@]12CCC(C)(C)C=C1[C@H]1CC[C@@H]3[C@@]4(C)CCC(=O)C(C)(C)[C@@H]4CC[C@@]3(C)[C@]1(C)CC2 | 100%
CC1(C)CC[C@]2(O)CC[C@]3(C)[C@H](CC[C@@H]4[C@@]5(C)CCC(=O)OC(C)(C)[C@@H]5CC[C@]43C)C23OC13 (stereo not given in full) | Active
CC1(C)C=C2[C@H]3CC[C@@H]4[C@@]5(C)CCC(=O)C(C)(C)[C@@H]5CC[C@@]4(C)[C@]3(C)CC[C@@]2(C(=O)NC2CCCCC2)CC1 | Active

Quick note, inhibition for CC1(C)C=C2[C@H]3CC[C@@H]4[C@@]5(C)CCC6(OCCO6)C(C)(C)[C@@H]5CC[C@@]4(C)[C@]3(C)CC[C@@]2(CO)CC1 landed at 100%

====

# SYSTEM_UNDER_TEST: Tyrosine-protein phosphatase non-receptor type 2 (Homo sapiens)
# Sequence (P17706 whole entry): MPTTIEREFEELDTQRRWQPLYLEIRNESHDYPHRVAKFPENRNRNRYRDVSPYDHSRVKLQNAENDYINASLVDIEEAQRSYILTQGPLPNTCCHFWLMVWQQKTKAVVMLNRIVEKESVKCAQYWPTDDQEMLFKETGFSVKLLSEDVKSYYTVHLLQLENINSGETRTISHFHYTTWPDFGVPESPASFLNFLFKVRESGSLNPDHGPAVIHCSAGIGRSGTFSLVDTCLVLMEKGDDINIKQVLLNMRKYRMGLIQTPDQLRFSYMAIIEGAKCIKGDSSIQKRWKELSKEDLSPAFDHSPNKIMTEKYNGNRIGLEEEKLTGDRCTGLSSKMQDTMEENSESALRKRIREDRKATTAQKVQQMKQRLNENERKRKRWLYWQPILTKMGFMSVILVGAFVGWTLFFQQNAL
# PROTOCOL_SUMMARY: Inhibition of recombinant human TC-PTP expressed in Escherichia coli TB1
pIC50: −log10 of the molar value.
MEASURED_ENDPOINT: pIC50

CC1(C)C=C2[C@H]3CC[C@@H]4[C@@]5(C)CCC6(OCCO6)C(C)(C)[C@@H]5CC[C@@]4(C)[C@]3(C)CC[C@@]2(CO)CC1 | < 4.00

As a next step, examine the molecule that follows.
Quick note, pIC50 for COC(=O)[C@]12CCC(C)(C)C=C1[C@H]1CC[C@@H]3[C@@]4(C)CCC(=O)C(C)(C)[C@@H]4CC[C@@]3(C)[C@]1(C)CC2 landed at < 4.00

====

# SYSTEM_UNDER_TEST: Tyrosine-protein phosphatase non-receptor type 1 (Homo sapiens, UniProt P18031)
# Sequence (P18031 whole entry): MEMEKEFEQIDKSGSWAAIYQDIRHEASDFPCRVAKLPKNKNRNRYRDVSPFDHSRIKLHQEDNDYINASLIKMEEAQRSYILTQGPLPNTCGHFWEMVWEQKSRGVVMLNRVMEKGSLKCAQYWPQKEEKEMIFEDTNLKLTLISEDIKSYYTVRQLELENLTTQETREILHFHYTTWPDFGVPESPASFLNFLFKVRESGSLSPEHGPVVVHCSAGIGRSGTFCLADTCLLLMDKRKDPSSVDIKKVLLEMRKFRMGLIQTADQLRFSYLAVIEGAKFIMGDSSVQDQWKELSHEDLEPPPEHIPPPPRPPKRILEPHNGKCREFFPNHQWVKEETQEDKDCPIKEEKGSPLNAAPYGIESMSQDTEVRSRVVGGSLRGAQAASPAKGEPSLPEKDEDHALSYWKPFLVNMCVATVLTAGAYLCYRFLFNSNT
# PROTOCOL_SUMMARY: Competitive inhibition of recombinant human PTP-1B expressed in Escherichia coli TB1 using p-nitrophenyl phosphate as substrate by Lineweaver-Burk plot analysis
MEASURED_ENDPOINT: pKi
# pKi = -log10(concentration in molar units)

Quick note, pKi for COC(=O)[C@]12CCC(C)(C)C=C1[C@H]1CC[C@@H]3[C@@]4(C)CCC(=O)C(C)(C)[C@@H]4CC[C@@]3(C)[C@]1(C)CC2 landed at 5.51
